method_notes: Dog PK study: zoledronic acid in serum after IV or oral capsule dosing, enteric or non-enteric coated, with or without excess coformer (LC/MS/MS)
Type: in vivo, Beagle dogs
condition: beagle, iv, 0.12 mg/kg, Leg 38, 0.12 mg/kg IV, saline solution, 1 h, read-out: Average serum concentration of 4 dogs
measured_endpoint: concentration at 1 h (ng/mL)

>>> quantitative_readout("O=P(O)(O)C(O)(Cn1ccnc1)P(=O)(O)O")
174

====

method_notes: Dog PK study: zoledronic acid in serum after IV or oral capsule dosing, enteric or non-enteric coated, with or without excess coformer (LC/MS/MS)
Assay type: in vivo, Beagle dogs
condition: beagle, po, Leg 24, 64.0 mg with 374.8 mg L-lysine HCl, gelatin capsule, PO, 2 h, read-out: Average serum concentration of 5 dogs
measured_endpoint: concentration at 2 h (ng/mL)

>>> quantitative_readout("O=P(O)(O)C(O)(Cn1ccnc1)P(=O)(O)O")
100

====

method_notes: Dog PK study: zoledronic acid in serum after IV or oral capsule dosing, enteric or non-enteric coated, with or without excess coformer (LC/MS/MS)
Type: in vivo, Beagle dogs
condition: beagle, intravenous, 0.12 mg/kg, Leg 18, 15 min IV infusion 0.12 mg/kg, saline solution, Time 1.25 hour, read-out: Average serum concentration of 5 dogs
measured_endpoint: concentration at 1.25 h (ng/mL)

>>> quantitative_readout("O=P(O)(O)C(O)(Cn1ccnc1)P(=O)(O)O")
93.2

====

method_notes: Dog PK study: zoledronic acid in serum after IV or oral capsule dosing, enteric or non-enteric coated, with or without excess coformer (LC/MS/MS)
Type: in vivo, Beagle dogs
condition: beagle, po, Leg 19, 61.3 mg with 322.9 mg DL-lysine monohydrate, gelatin capsule, PO, 8 h, read-out: Average serum concentration of 5 dogs
measured_endpoint: concentration at 8 h (ng/mL)

>>> quantitative_readout("O=P(O)(O)C(O)(Cn1ccnc1)P(=O)(O)O")
8.53

====

method_notes: Rat PK study: zoledronic acid in plasma after IV, oral gavage or intraduodenal dosing (LC/MS/MS)
Format: in vivo
condition: male, Sprague-Dawley, iv, 0.5 mg/kg, read-out: Average plasma concentration of 3 rats
measured_endpoint: concentration at 0.5 hour (ng/mL)

>>> quantitative_readout("O=P(O)(O)C(O)(Cn1ccnc1)P(=O)(O)O")
1130

====

method_notes: Dog PK study: zoledronic acid in serum after IV or oral capsule dosing, enteric or non-enteric coated, with or without excess coformer (LC/MS/MS)
Type: in vivo, Beagle dogs
condition: beagle, iv, 0.05 mg/kg, zoledronic acid in dog serum, Leg 1, IV 0.05 mg/kg, saline solution, Time 8 hour, read-out: Average serum concentration of 5 dogs
measured_endpoint: concentration at 8 hour (ng/mL)

>>> quantitative_readout("O=P(O)(O)C(O)(Cn1ccnc1)P(=O)(O)O")
1.13

====

method_notes: Dog PK study: zoledronic acid in serum after IV or oral capsule dosing, enteric or non-enteric coated, with or without excess coformer (LC/MS/MS)
Type: in vivo, Beagle dogs
condition: beagle, intravenous, 0.12 mg/kg, Leg 18, 15 min IV infusion 0.12 mg/kg, saline solution, Time 0 hour (pre-dose), read-out: Average serum concentration of 5 dogs
measured_endpoint: concentration at 0 h (ng/mL)

>>> quantitative_readout("O=P(O)(O)C(O)(Cn1ccnc1)P(=O)(O)O")
0
